Where these numbers come from: patent US20220193237A1

Target: T1, monomeric human CTLA-4 (human, UniProt P16410 36-161, limits assumed)
T1 construct: Soluble monomeric analyte in SPR; also called huCTLA-4
T1 sequence: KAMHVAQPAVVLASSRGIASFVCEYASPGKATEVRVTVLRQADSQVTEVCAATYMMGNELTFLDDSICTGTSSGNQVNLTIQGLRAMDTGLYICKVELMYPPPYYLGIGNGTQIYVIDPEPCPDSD
Experiment: SPR, captured Fab, pH 6.0 vs 7.4
Experimental Endpoint: KD 7.4/6 (APBP)

{"Binder": "ipi.93 Fab (Fab, V domains shown, Tested as monovalent Fab) VH: QVQLVESGGGVVQPGRSLRLSCAASGFTFSSYTMHWVRQAPGKGLEWVTFISYDGNNKYYADSVKGRFTISRDNSKNTLYLQMNSLRAEDTAIYYCARTGWLGPFDYWGQGTLVTVSS VL: EIVLTQSPGTLSLSPGERATLSCRASQEVGDSELAWYQQKPGQAPRLLIYGAFSRATGIPDRFSGSGSGTDFTLTISRLEPEDFAVYYCQQYGSSPWTFGQGTKVEIKR", "KD 7.4/6 (APBP)": 16}

Data request, read-out KD 7.4/6 (APBP), for ipi.105 Fab (Fab, V domains shown, Tested as monovalent Fab) VH: QVQLVESGGGVVQPGRSLRLSCAASGFTFSHYTMHWVRQAPGKGLEWVTFISYDGHNKYYADSVKGRFTISRDNSKNTLYLQMNSLRAEDTAIYYCARTGWLGPFDYWGQGTLVTVSS VL: EIVLTQSPGTLSLSPGERATLSCRASQEVGESELAWYQQKPGQAPRLLIYGAFSRATGIPDRFSGSGSGTDFTLTISRLEPEDFAVYYCQQYGSSPWTFGQGTKVEIKR
76

Param item: ipi.90 Fab (Fab, V domains shown, Tested as monovalent Fab) VH: QVQLVESGGGVVQPGRSLRLSCAASGFTFSHYTMHWVRQAPGKGLEWVTFISYDGNNKYYADSVKGRFTISRDNSKNTLYLQMNSLRAEDTAIYYCARHGWLGPFDYWGQGTLVTVSS VL: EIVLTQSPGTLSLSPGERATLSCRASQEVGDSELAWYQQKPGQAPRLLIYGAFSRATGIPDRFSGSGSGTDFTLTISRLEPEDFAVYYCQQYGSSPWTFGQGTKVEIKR
> 28

Could you do the same for ipi.106 Fab (Fab, V domains shown, Tested as monovalent Fab) VH: QVQLVESGGGVVQPGRSLRLSCAASGFTFSHYTMHWVRQAPGKGLEWVTFISYDGHNKYYADSVKGRFTISRDNSKNTLYLQMNSLRAEDTAIYYCARHGWLGPFDYWGQGTLVTVSS VL: EIVLTQSPGTLSLSPGERATLSCRASQEVGESELAWYQQKPGQAPRLLIYGAFSRATGIPDRFSGSGSGTDFTLTISRLEPEDFAVYYCQQYGSSPWTFGQGTKVEIKR , please?
> 20

Repeat for the following binder: ipi.92 Fab (Fab, V domains shown, Tested as monovalent Fab) VH: QVQLVESGGGVVQPGRSLRLSCAASGFTFSHYTMHWVRQAPGKGLEWVTFISYDGHNKYYADSVKGRFTISRDNSKNTLYLQMNSLRAEDTAIYYCARHGWLGPFDYWGQGTLVTVSS VL: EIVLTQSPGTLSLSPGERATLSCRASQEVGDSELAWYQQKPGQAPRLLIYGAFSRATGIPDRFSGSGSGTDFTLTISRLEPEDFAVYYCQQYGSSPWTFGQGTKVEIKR
> 59
